Target: T1, hIL-4R on cells (STAT6-transfected HEK293, TF1, TF1/A12) (human, UniProt P24394 26-825)
T1 sequence (looked up): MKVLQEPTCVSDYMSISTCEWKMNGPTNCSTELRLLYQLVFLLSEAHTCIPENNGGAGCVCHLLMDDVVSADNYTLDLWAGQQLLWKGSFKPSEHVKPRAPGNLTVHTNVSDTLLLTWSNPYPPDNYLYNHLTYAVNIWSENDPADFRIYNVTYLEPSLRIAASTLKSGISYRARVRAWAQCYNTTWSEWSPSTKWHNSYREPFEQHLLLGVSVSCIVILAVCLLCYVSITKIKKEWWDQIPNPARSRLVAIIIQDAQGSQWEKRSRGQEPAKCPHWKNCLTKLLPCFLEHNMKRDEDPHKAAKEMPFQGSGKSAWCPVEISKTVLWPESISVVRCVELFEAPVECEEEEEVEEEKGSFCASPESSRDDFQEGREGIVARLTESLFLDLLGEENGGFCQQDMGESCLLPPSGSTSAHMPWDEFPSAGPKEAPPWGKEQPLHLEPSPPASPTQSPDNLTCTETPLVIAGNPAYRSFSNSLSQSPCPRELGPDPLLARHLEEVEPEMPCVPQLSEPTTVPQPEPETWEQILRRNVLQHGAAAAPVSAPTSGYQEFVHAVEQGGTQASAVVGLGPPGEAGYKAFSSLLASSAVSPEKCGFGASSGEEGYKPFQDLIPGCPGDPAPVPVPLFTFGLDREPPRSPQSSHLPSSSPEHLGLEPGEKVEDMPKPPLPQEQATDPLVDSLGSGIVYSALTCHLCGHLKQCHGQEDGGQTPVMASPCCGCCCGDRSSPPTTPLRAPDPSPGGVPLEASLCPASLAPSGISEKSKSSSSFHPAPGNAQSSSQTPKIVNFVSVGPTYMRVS
Test: cell-based or functional assay
QUANTITY_MEASURED: TF1 Bioassay IC50 (proliferation, 150 pM hIL-13) (nM)

[
  {
    "BINDER": "VAK12B11-9 (antibody, V domains shown, Apparently tested with mouse constant region (anti-mouse IgG capture/detection)) VH: QVQLVESGGGVVQPGRSLRLSCAASGFTFSSYAMYWVRQAPGKGLEWVAVISYDGSNKYYTDSVKGRFTVSRDNSKNTLFLQMNSLRAEDTALYYCAKESSSYGLDVWGQGTTVTVSS VL: DIQMTQSPSTLSASVGDRVAITCRASQSISNWLAWYQQKPGKAPKLLISKASSLKSGVPSRFSGSGSGTEFTLTISSLQPDDFAAYYCQQYNSYSYTFGQGTKLEIK",
    "RECORDED_NUMBER": 1.6
  },
  {
    "BINDER": "VAB 16G1-1 (antibody, V domains shown, 403/405; 407/409 without saying which was assayed; Apparently tested with mouse constant region (anti-mouse IgG capture/detection)) VH: EVKLAESGGGLVQPGGSLRLSCAASGFTFSSHWMNWVRQAPGKGLEWVANIKQDGSDKYYVDSVKGRFTISRDNAKNSLYLQLNSLIAEDTAVYYCARDRGVRPPRGAFDIWGQGTMVTVSS VL: DIQMTQSPSSVSASVGDRVTITCRASQGISSWLAWYQQKPGKAPKLLIYAASSFQSGVPSRFSGSGSGTDFTLTISSLQPEDFATYFCQQANSFPLTFGGGTTVEIK",
    "RECORDED_NUMBER": 0.44
  },
  {
    "BINDER": "VAK5H4-4 (antibody, V domains shown, Apparently tested with mouse constant region (anti-mouse IgG capture/detection)) VH: QVRLVESGGGVVQPGGSLRLSCVASGFTFRSYGMHWVRQAPGRGLEWVAVISYDGSKTFYVDSVKVRFTISRDNSKNTLYLEMNSLRVDDTAVYFCVKEGRSGSWFDPWGQGTLVAVSS VL: DIQMTQSPSSLSASVGDRVTITCRASQAINNFLAWFQQKPGKTPNSLIFATSSLQSGVPSRFSAGGSGTDFTLTISSLQPEDFATYYCQQYNSHPWTFGQGTKVEIK",
    "RECORDED_NUMBER": 0.24
  }
]
